Target: AJLec (Anthopleura japonica, UniProt A0A2Z5WLM1)
Construct: mature 164 residues, 18,491 Da, precursor 186 residues; N-terminal pyroglutamate; disulfide-linked homodimer (36 kDa); Ca2+ dependent
Sequence (A0A2Z5WLM1 23-186): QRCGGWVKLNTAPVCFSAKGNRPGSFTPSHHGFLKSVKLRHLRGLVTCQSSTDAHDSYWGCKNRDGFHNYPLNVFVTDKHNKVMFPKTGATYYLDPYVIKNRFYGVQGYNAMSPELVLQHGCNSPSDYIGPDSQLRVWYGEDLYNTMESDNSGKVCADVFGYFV
Assay: hemagglutination inhibition, rabbit erythrocytes
Format: cell-based
Conditions: 2.4–2.6 μg/mL AJLec, TBS-Ca2+
MEASUREMENT_TYPE: Minimum inhibitory concentration (mM)

The examples below pair each entry with its known result.
CO[C@H]1O[C@H](CO)[C@H](O)[C@H](O)[C@H]1O [Me-α-Gal] :: 0.8
OC[C@H]1O[C@H](OC[C@H]2O[C@H](O[C@]3(CO)O[C@H](CO)[C@@H](O)[C@@H]3O)[C@H](O)[C@@H](O)[C@@H]2O)[C@H](O)[C@@H](O)[C@H]1O [Raffinose] :: 0.8
C[C@@H]1OC(O)[C@H](O)[C@H](O)[C@H]1O (stereo partly drawn) [L-Rhamnose] :: 3

A: OC[C@H]1O[C@H](OC[C@H]2OC(O)(CO)[C@@H](O)[C@@H]2O)[C@H](O)[C@@H](O)[C@@H]1O (some centres unmarked) [Palatinose]
B: OC[C@H]1O[C@@H](O[C@@H]2[C@@H](CO)OC(O)(CO)[C@H]2O)[C@H](O)[C@@H](O)[C@H]1O (some centres unmarked) [Lactulose]
Q: Looking at recorded values for Minimum inhibitory concentration, does A or B come in lower? Record your answer as the label of the chosen record.
Result: B

###

Molecular target: AJLec (Anthopleura japonica)
Construct: mature 164 residues, 18,491 Da, precursor 186 residues; N-terminal pyroglutamate; disulfide-linked homodimer (36 kDa); Ca2+ dependent
Experiment: hemagglutination inhibition, rabbit erythrocytes
Format: cell-based
Conditions: 2.4–2.6 μg/mL AJLec, TBS-Ca2+
MEASUREMENT_TYPE: Minimum inhibitory concentration (µM)

OC[C@H]1OC(O)[C@H](O)[C@@H](O)[C@H]1O (some centres unmarked) :: 50
OC[C@H]1O[C@@H](O[C@H]2[C@H](O)[C@@H](O)C(O)O[C@@H]2CO)[C@H](O)[C@@H](O)[C@H]1O (some centres unmarked) :: 100
CO[C@@H]1O[C@H](CO)[C@H](O)[C@H](O)[C@H]1O :: 400
CC(=O)N[C@H]1C(O)O[C@H](CO)[C@H](O)[C@@H]1O (some centres unmarked) :: 25000

1: OC[C@H]1O[C@H](O[C@H]2[C@H](O)[C@@H](O)C(O)O[C@@H]2CO)[C@H](O)[C@@H](O)[C@@H]1O (some centres unmarked)
2: C[C@@H]1OC(O)[C@@H](O)[C@H](O)[C@@H]1O (some centres unmarked)
3: OC[C@H]1O[C@H](OC[C@H]2OC(O)[C@H](O)[C@@H](O)[C@@H]2O)[C@H](O)[C@@H](O)[C@H]1O (some centres unmarked)
Q: Please produce an ascending ranking of these molecules based on Minimum inhibitory concentration. Reply format: the labels, ordered as requested.
Result: 3, 2, 1

###

Target: AJLec (Anthopleura japonica, UniProt A0A2Z5WLM1)
Construct: mature 164 residues, 18,491 Da, precursor 186 residues; N-terminal pyroglutamate; disulfide-linked homodimer (36 kDa); Ca2+ dependent
Experiment: hemagglutination inhibition, rabbit erythrocytes
Assay type: cell-based
Conditions: 2.4–2.6 μg/mL AJLec, TBS-Ca2+
Minimum inhibitory concentration values by entry

The examples below pair each entry with its known result.
OC[C@H]1OC(O)[C@@H](O)[C@@H](O)[C@@H]1O (stereo partly drawn) :: > 25 mM
CO[C@H]1O[C@H](CO)[C@@H](O)[C@H](O)[C@H]1O :: > 25 mM

Now take the following compound into account.
Q: Any idea what its Minimum inhibitory concentration is? The compound is OC[C@H]1OC(O)[C@H](O)[C@@H](O)[C@@H]1O (stereo partly drawn)
Result: > 25 mM

Cited source for all entries: paper PMC6070535
